compounds and their reported IC50
- Tested on: Ileum
- method-description: Relaxant activity in potassium depolarized guinea pig ileum longitudinal smooth muscle assessed as inhibition of calcium-induced contraction
- Assay type: functional, tissue-based
- run-parameters: Cavia porcellus
Quote the value and follow it with the unit of measurement.

Field IC50 (entry "COC(=O)C1=C(C)NC(C)=C(C(=O)OC)C1c1c(-c2c(Cl)csc2Cl)nc2sccn12" ) reads 0.18 µM

Field IC50 (entry "COC(=O)C1=C(C)NC(C)=C(C(=O)OC)C1c1c(-c2cccs2)nc2sccn12" ) reads 0.11 µM

Field IC50 (entry "COC(=O)C1=C(C)NC(C)=C(C(=O)OC)C1c1c(-c2ccccn2)nc2sc(C)cn12" ) reads 2.81 µM

Field IC50 (entry "COC(=O)C1=C(C)NC(C)=C(C(=O)OC)C1c1c(-c2ccsc2)nc2sccn12" ) reads 0.0023 µM
